B1: HDV Ribozyme (parent)
chain: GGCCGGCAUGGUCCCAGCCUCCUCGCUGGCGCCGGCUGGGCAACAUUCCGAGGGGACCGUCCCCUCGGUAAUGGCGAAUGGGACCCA

# Variants of: B1
# Protocol Notes: self-cleavage, relative activity (ratio to wild type); higher = more cleavage; co-transcriptional
Classification field. Basis: self-cleavage. Definitions: L (below 0.1), M (0.1 to below 0.7), H (0.7 or more)

>  <Mutation List>
G35C G82A

>  <Assigned Label>
M

$$$$
>  <Mutation List>
A16G U72C

>  <Assigned Label>
H

$$$$
>  <Mutation List>
U9G G35C

>  <Assigned Label>
L

$$$$
>  <Mutation List>
C7G G38U

>  <Assigned Label>
L

$$$$
>  <Mutation List>
A16G U47A

>  <Assigned Label>
H

$$$$
>  <Mutation List>
C19A G55C

>  <Assigned Label>
L

$$$$
>  <Mutation List>
C3U A71G

>  <Assigned Label>
H

$$$$
>  <Mutation List>
C33G A70C

>  <Assigned Label>
M

$$$$
>  <Mutation List>
G54C G76C

>  <Assigned Label>
H

$$$$
>  <Mutation List>
C4G G67A

>  <Assigned Label>
M

$$$$
>  <Mutation List>
G35U A77C

>  <Assigned Label>
L

$$$$
>  <Mutation List>
C21G A83C

>  <Assigned Label>
L

$$$$
>  <Mutation List>
G80U G81U

>  <Assigned Label>
M

$$$$
>  <Mutation List>
C13A G53C

>  <Assigned Label>
M

$$$$
>  <Mutation List>
C33U U65A

>  <Assigned Label>
H

$$$$
>  <Mutation List>
G25U C30A

>  <Assigned Label>
M

$$$$
>  <Mutation List>
A16G G67U

>  <Assigned Label>
H

$$$$
>  <Mutation List>
C62G C75U

>  <Assigned Label>
M

$$$$
>  <Mutation List>
U37C G67C

>  <Assigned Label>
H

$$$$
>  <Mutation List>
U9C C44G

>  <Assigned Label>
M

$$$$
>  <Mutation List>
C26U U47C

>  <Assigned Label>
H

$$$$
>  <Mutation List>
G1C G73C

>  <Assigned Label>
M

$$$$
>  <Mutation List>
C63G G74C

>  <Assigned Label>
M

$$$$
>  <Mutation List>
G55A C75G

>  <Assigned Label>
M

$$$$
>  <Mutation List>
C13U G17A

>  <Assigned Label>
M

$$$$
>  <Mutation List>
C33A A51C

>  <Assigned Label>
M

$$$$
>  <Mutation List>
G40C A77C

>  <Assigned Label>
M

$$$$
>  <Mutation List>
C14U A43C

>  <Assigned Label>
M

$$$$
>  <Mutation List>
C44A A83G

>  <Assigned Label>
M

$$$$
>  <Mutation List>
C21A G74A

>  <Assigned Label>
L

$$$$
>  <Mutation List>
C57A C62U

>  <Assigned Label>
H

$$$$
>  <Mutation List>
C26U U27A

>  <Assigned Label>
H

$$$$
>  <Mutation List>
G17C G52C

>  <Assigned Label>
M

$$$$
>  <Mutation List>
U9C C41G

>  <Assigned Label>
H

$$$$
>  <Mutation List>
C63G C66U

>  <Assigned Label>
M

$$$$
>  <Mutation List>
U9A C19G

>  <Assigned Label>
L

$$$$
>  <Mutation List>
G2C A43C

>  <Assigned Label>
M

$$$$
>  <Mutation List>
A16G U60C

>  <Assigned Label>
H

$$$$
>  <Mutation List>
G10A A77C

>  <Assigned Label>
M

$$$$
